Item-by-item account of Specific Activity
TEST_SYSTEM: Gox0502 (Gluconobacter oxydans)
Sequence (Q5FTL6 1-361): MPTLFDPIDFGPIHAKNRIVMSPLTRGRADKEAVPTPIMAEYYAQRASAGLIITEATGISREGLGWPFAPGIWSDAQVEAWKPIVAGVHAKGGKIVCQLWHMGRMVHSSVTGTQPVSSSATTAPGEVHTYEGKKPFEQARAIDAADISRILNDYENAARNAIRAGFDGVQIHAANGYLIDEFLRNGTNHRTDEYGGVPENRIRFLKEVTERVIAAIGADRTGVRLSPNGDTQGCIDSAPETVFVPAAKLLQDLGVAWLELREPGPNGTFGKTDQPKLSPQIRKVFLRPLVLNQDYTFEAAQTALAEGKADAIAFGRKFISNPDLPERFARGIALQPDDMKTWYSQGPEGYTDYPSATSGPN
ASSAY_INFO: Enzyme activity assay (rate of NAD(P)H decrease at 340 nm), Gox0502
Type: biochemical
Set-up: Strep-tag II (N); made in house; host or cells: E. coli BL21 or E. coli DH5α (pASK-IBA5)
APPLIED_CONDITIONS: Tab. 7, Gox0502; cofactor NADPH; 10 mM substrate, pH 7.0, 30 °C
REPORTED_ENDPOINT: Specific Activity (U/mg)

>>> print(df.to_string())
                                   compound  censor_symbol  test_result
0                 CC(=O)C=O [methylglyoxal]              =          1.5
1  O=C1C=C(O)C(=O)c2ccccc21 [2-hydroxy-1,4-naphthoquinone]              =         0.75
2          CCCC(=O)C(C)=O [2,3-hexanedione]              =          1.0
3          O=CC(=O)c1ccccc1 [phenylglyoxal]              =         15.7
4  CC1=CC(=O)c2ccccc2C1=O [2-methyl-1,4-naphthoquinone]              =           10
5    N#CC1=C(C#N)C(=O)C(Cl)=C(Cl)C1=O [DDQ]              <          0.1
6  O=C1C=CC(=O)c2ccccc21 [1,4-naphthoquinone]              =         16.6

---

Item-by-item account of Specific Activity
TEST_SYSTEM: Gox1615 (Gluconobacter oxydans)
ASSAY_INFO: Enzyme activity assay (rate of NAD(P)H decrease at 340 nm), Gox1615
Format: biochemical
APPLIED_CONDITIONS: Tab. 5, Gox1615; cofactor NADPH; 10 mM substrate, pH 7.0, 30 °C
REPORTED_ENDPOINT: Specific Activity (U/mg)

>>> print(df.to_string())
   smiles_structure  reported_endpoint  unit  test_result
0      CCCCCCCCCC=O  Specific Activity  U/mg         10.5
1       O=Cc1ccccc1  Specific Activity  U/mg         12.2
2      CC(=O)C(C)=O  Specific Activity  U/mg            6
3  O=CC(=O)c1ccccc1  Specific Activity  U/mg         19.1
4    Cc1cccc(C=O)c1  Specific Activity  U/mg          1.5
5     CCCCCCCCCCC=O  Specific Activity  U/mg          7.5
6        CCCCCCCC=O  Specific Activity  U/mg          5.3

---

TEST_SYSTEM: Gox1615 (Gluconobacter oxydans, UniProt Q5FQJ0)
Sequence (Q5FQJ0 1-332): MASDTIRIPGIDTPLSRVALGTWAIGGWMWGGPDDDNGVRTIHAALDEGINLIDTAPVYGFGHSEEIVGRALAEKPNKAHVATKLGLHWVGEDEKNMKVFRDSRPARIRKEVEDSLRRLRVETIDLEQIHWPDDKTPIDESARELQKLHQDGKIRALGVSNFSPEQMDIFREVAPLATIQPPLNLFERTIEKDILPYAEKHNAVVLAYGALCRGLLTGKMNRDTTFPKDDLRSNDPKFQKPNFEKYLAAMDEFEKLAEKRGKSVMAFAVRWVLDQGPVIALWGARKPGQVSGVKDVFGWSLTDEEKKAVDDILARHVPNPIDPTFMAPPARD
ASSAY_INFO: Enzyme activity assay (rate of NAD(P)H decrease at 340 nm), Gox1615
Format: biochemical
APPLIED_CONDITIONS: Tab. 5, Gox1615; cofactor NADPH; 10 mM substrate, pH 7.0, 30 °C
REPORTED_ENDPOINT: Specific Activity (U/mg)

                        compound  test_result
0              O=C1Nc2ccccc2C1=O          2.4
1                      CCCCCCC=O         15.5
2                      CC(=O)C=O         19.3
3                 Cc1ccc(C=O)cc1          2.3
4                      O=CCCCC=O         13.5
5  CCCC(C)C=O (stereo not shown)         13.4
6                        CCCCC=O         15.1

---

TEST_SYSTEM: UniProt Q5FTL6
ASSAY_INFO: Enzyme activity assay (rate of NAD(P)H decrease at 340 nm), Gox0502
Format: biochemical
Design: Strep-tag II (N); made in house; host or cells: E. coli BL21 or E. coli DH5α (pASK-IBA5)
APPLIED_CONDITIONS: Tab. 7, Gox0502; cofactor NADPH; 10 mM substrate, pH 7.0, 30 °C
Item-by-item account of Specific Activity
REPORTED_ENDPOINT: Specific Activity

                                   compound     test_system  test_result
0               CC=CC(C)=O [3-penten-2-one]  UniProt Q5FTL6     3.6 U/mg
1         O=C1C=CCCC1 [2-cyclohexene-1-one]  UniProt Q5FTL6     9.8 U/mg
2                 C=CC(C)=O [3-buten-2-one]  UniProt Q5FTL6      21 U/mg
3            CC(=O)C(C)=O [2,3-butanedione]  UniProt Q5FTL6     0.5 U/mg
4         O=C1C=CC(=O)C=C1 [p-benzoquinone]  UniProt Q5FTL6      10 U/mg
5              C=CC(=O)CC [1-pentene-3-one]  UniProt Q5FTL6     6.1 U/mg
6  C=C(C)[C@H]1CC=C(C)C(=O)C1 [(+)-Carvone]  UniProt Q5FTL6     8.0 U/mg

---

Item-by-item account of Specific Activities
TEST_SYSTEM: Gox2684 (Gluconobacter oxydans, UniProt Q5HXK5)
Sequence (Q5HXK5 1-357): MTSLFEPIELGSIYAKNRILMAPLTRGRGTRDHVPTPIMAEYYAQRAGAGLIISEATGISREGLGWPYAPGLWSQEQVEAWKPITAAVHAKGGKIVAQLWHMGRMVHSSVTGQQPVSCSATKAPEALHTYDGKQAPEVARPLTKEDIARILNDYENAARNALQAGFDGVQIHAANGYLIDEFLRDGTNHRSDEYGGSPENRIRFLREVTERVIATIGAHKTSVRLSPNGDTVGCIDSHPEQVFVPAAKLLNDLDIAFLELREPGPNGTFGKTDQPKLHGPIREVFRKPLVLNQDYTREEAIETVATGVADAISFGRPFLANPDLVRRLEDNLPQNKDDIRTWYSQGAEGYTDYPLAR
ASSAY_INFO: Enzyme activity assay (rate of NAD(P)H decrease at 340 nm), Gox2684
Format: biochemical
APPLIED_CONDITIONS: Tab. 8, GOX2684; cofactor NADPH; 10 mM substrate, pH 7.0, 30 °C
REPORTED_ENDPOINT: Specific Activities (U/mg)

>>> print(df.to_string())
                                    molecule  unit  test_result
 0                             CCC(=O)C(C)=O  U/mg          0.6
 1  O=C1C=C(O)C(=O)c2ccccc21 [2-hydroxy-1,4-naphthoquinone]  U/mg          0.7
 2                              CC(=O)C(C)=O  U/mg          0.5
 3                                 C=CC(C)=O  U/mg          8.8
 4                            CCC(=O)C(=O)CC  U/mg          0.6
 5                            CCCC(=O)C(C)=O  U/mg          2.3
 6                          O=CC(=O)c1ccccc1  U/mg          2.1
 7                                CC=CC(C)=O  U/mg          1.9
 8                            O=CC=Cc1ccccc1  U/mg          0.4
 9       O=CCCc1ccccc1 [hydrocinnamaldehyde]  U/mg          1.9
10                                 CC(=O)C=O  U/mg          1.4
11                    CC1=CC(=O)c2ccccc2C1=O  U/mg          6.8
12                     O=C1C=CC(=O)c2ccccc21  U/mg          3.4

---

TEST_SYSTEM: Gox0646 (Gluconobacter oxydans, UniProt Q5FT73)
Sequence (Q5FT73 1-264): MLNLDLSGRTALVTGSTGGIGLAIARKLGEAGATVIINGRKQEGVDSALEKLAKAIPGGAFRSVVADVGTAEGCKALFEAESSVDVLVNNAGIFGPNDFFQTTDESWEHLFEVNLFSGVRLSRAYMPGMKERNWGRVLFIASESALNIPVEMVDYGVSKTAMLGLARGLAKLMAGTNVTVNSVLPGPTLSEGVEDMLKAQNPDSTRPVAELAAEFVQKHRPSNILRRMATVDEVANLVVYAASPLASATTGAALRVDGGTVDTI
ASSAY_INFO: Enzyme activity assay (rate of NAD(P)H decrease at 340 nm), Gox0646
Type: biochemical
APPLIED_CONDITIONS: Tab. 9, GOX0646; cofactor NADPH; 10 mM substrate, pH 7.0, 30 °C
Classify as follows. Reported Specific Activities greater than or equal to 0.3 U/mg: MET. Reported Specific Activities below: NOT MET.

>>> print(df.to_string())
        smiles_structure  assigned_class
0         CCCC(=O)C(C)=O             MET
1           CC(=O)C(C)=O             MET
2              CC(=O)C=O         NOT MET
3    CC(=O)C(=O)c1ccccc1             MET
4  O=C1C=CC(=O)c2ccccc21         NOT MET
5      O=C1Nc2ccccc2C1=O         NOT MET
6         CCC(=O)C(=O)CC             MET
7          CCC(=O)C(C)=O             MET

Reference for the values: patent EP2119770B1
